- System: Enterobacter cloacae (ECL) isolates
- ASSAY EXPLANATION: MIC of compounds alone and combined with antibacterials, broth microdilution (CLSI)
- Type: cell-based
- CONDITION INFO: strain ECL UFR195; antibacterial combined with AF1 @ 4 μg/mL
PARAMETER MEASURED: MIC ATB in combination (µg/mL)

1) CC(C)(O/N=C(\C(=O)N[C@@H]1C(=O)N2C(C(=O)[O-])=C(C[n+]3ccccc3)CS[C@H]12)c1csc(N)n1)C(=O)O [CAZ, Ceftazidime]    1
2) C=CC1=C(C(=O)O)N2C(=O)[C@@H](NC(=O)/C(=N\OCC(=O)O)c3csc(N)n3)[C@H]2SC1 [FIX, Cefixime]    4
3) C=CC1=C(C(=O)O)N2C(=O)[C@@H](NC(=O)/C(=N\O)c3csc(N)n3)[C@H]2SC1 [CDR, Cefdinir]    4
4) CO/N=C(\C(=O)N[C@@H]1C(=O)N2C(C(=O)O)=C(COC(N)=O)CS[C@H]12)c1ccco1 [FUR, Cefuroxime]    32
5) CC1(C)S[C@@H]2[C@H](NC(=O)[C@H](N)c3ccc(O)cc3)C(=O)N2[C@H]1C(=O)O [AMX, Amoxicillin]    256
6) COCC1=C(C(=O)O)N2C(=O)[C@@H](NC(=O)/C(=N\OC)c3csc(N)n3)[C@H]2SC1 [POD, Cefpodoxime]    1

----------
Entries and their measured MIC ATB in combination follow.
- Test system: Morganella morganii (MMO) isolates
- ASSAY EXPLANATION: MIC of compounds alone and combined with antibacterials, broth microdilution (CLSI)
- Format: cell-based
- CONDITION INFO: MMO UFR247; AF1 @ 4 μg/mL
PARAMETER MEASURED: MIC ATB in combination (µg/mL)

1. CO/N=C(\C(=O)N[C@@H]1C(=O)N2C(C(=O)O)=C(COC(N)=O)CS[C@H]12)c1ccco1 [FUR, Cefuroxime]    16
2. COCC1=C(C(=O)O)N2C(=O)[C@@H](NC(=O)/C(=N\OC)c3csc(N)n3)[C@H]2SC1 [POD, Cefpodoxime]    1
3. C=CC1=C(C(=O)O)N2C(=O)[C@@H](NC(=O)/C(=N\OCC(=O)O)c3csc(N)n3)[C@H]2SC1 [FIX, Cefixime]    0.5
4. C=CC1=C(C(=O)O)N2C(=O)[C@@H](NC(=O)/C(=N\O)c3csc(N)n3)[C@H]2SC1 [CDR, Cefdinir]    1
5. CC1(C)S[C@@H]2[C@H](NC(=O)[C@H](N)c3ccc(O)cc3)C(=O)N2[C@H]1C(=O)O [AMX, Amoxicillin]    32

----------
- Test system: Morganella morganii (MMO) isolates
- ASSAY EXPLANATION: MIC of compounds alone and combined with antibacterials, broth microdilution (CLSI)
- Assay type: cell-based
- CONDITION INFO: MMO UFR245; AF1 @ 4 μg/mL
PARAMETER MEASURED: MIC ATB in combination

1. C=CC1=C(C(=O)O)N2C(=O)[C@@H](NC(=O)/C(=N\OCC(=O)O)c3csc(N)n3)[C@H]2SC1 [FIX, Cefixime]    2 µg/mL
2. CO/N=C(\C(=O)N[C@@H]1C(=O)N2C(C(=O)O)=C(COC(N)=O)CS[C@H]12)c1ccco1 [FUR, Cefuroxime]    32 µg/mL
3. COCC1=C(C(=O)O)N2C(=O)[C@@H](NC(=O)/C(=N\OC)c3csc(N)n3)[C@H]2SC1 [POD, Cefpodoxime]    2 µg/mL
4. C=CC1=C(C(=O)O)N2C(=O)[C@@H](NC(=O)/C(=N\O)c3csc(N)n3)[C@H]2SC1 [CDR, Cefdinir]    4 µg/mL
5. CC1(C)S[C@@H]2[C@H](NC(=O)[C@H](N)c3ccc(O)cc3)C(=O)N2[C@H]1C(=O)O [AMX, Amoxicillin]    64 µg/mL
